Measured Percent monomer values are reported for all entries that follow.
- Test summary: Analytical size exclusion chromatography (aggregation state, percent monomer)
- Format: physicochemical
- Condition: NEM-conjugated cysteine variants; SEC, Abs280

Example entries begin here.
- Molecule: "V8C (protein, EGFR binding FN3 domain; EGFR-binding FN3 domain) chain 1: MLPAPKNLCVSEVTEDSARLSWDDPWAFYESFLIQYQESEKVGEAIVLTVPGSERSYDLTGLKPGTEYTVSIYGVHNVYKDTNMRGLPLSAIFTT chain 2: LPAPKNLCVSEVTEDSARLSWDDPWAFYESFLIQYQESEKVGEAIVLTVPGSERSYDLTGLKPGTEYTVSIYGVHNVYKDTNMRGLPLSAIFTT"
  Observed value: "91%"
- Molecule: "T68C (protein, EGFR binding FN3 domain; EGFR-binding FN3 domain) chain 1: MLPAPKCLVVSEVTEDSARLSWDDPWAFYESFLIQYQESEKVGEAIVLTVPGSERSYDLTGLKPGTEYTVSIYGVHNVYKDTNMRGLPLSAIFTT chain 2: LPAPKCLVVSEVTEDSARLSWDDPWAFYESFLIQYQESEKVGEAIVLTVPGSERSYDLTGLKPGTEYTVSIYGVHNVYKDTNMRGLPLSAIFTT"
  Observed value: "100%"
- Molecule: "I91C (protein) LPAPKNLVVSEVTEDSARLSWDDPWAFYESFLIQYQESEKVGEAIVLTVPGSERSYDLTGLKPGTEYTVSIYGVHNVYKDTNMRGLPLSACFTT"
  Observed value: "100%"
- Molecule: "S16C (protein, EGFR binding FN3 domain; EGFR-binding FN3 domain) chain 1: MLPAPKNLVVSEVTEDCARLSWDDPWAFYESFLIQYQESEKVGEAIVLTVPGSERSYDLTGLKPGTEYTVSIYGVHNVYKDTNMRGLPLSAIFTT chain 2: LPAPKNLVVSEVTEDCARLSWDDPWAFYESFLIQYQESEKVGEAIVLTVPGSERSYDLTGLKPGTEYTVSIYGVHNVYKDTNMRGLPLSAIFTT"
  Observed value: "75%"
- Molecule: "S38C (protein, EGFR binding FN3 domain; EGFR-binding FN3 domain) chain 1: MLPAPKNLVVSEVTEDSARLSWDDPWAFYESFLIQYQECEKVGEAIVLTVPGSERSYDLTGLKPGTEYTVSIYGVHNVYKDTNMRGLPLSAIFTT chain 2: LPAPKNLVVSEVTEDSARLSWDDPWAFYESFLIQYQECEKVGEAIVLTVPGSERSYDLTGLKPGTEYTVSIYGVHNVYKDTNMRGLPLSAIFTT"
  Observed value: "93%"

Prompt line: Which Percent monomer value belongs to R54C (protein, EGFR binding FN3 domain; EGFR-binding FN3 domain) chain 1: MLPAPKNLVVSEVTEDSARLSWDDPWAFYESFLIQYQESEKVGEAIVLTVPGSECSYDLTGLKPGTEYTVSIYGVHNVYKDTNMRGLPLSAIFTT chain 2: LPAPKNLVVSEVTEDSARLSWDDPWAFYESFLIQYQESEKVGEAIVLTVPGSECSYDLTGLKPGTEYTVSIYGVHNVYKDTNMRGLPLSAIFTT ?
Response line: 96%

Prompt line: Which Percent monomer value belongs to S89C (protein, EGFR binding FN3 domain; EGFR-binding FN3 domain) chain 1: MLPAPKNLVVSEVTEDSARLSWDDPWAFYESFLIQYQESEKVGEAIVLTVPGSERSYDLTGLKPGTEYTVSIYGVHNVYKDTNMRGLPLCAIFTT chain 2: LPAPKNLVVSEVTEDSARLSWDDPWAFYESFLIQYQESEKVGEAIVLTVPGSERSYDLTGLKPGTEYTVSIYGVHNVYKDTNMRGLPLCAIFTT ?
Response line: 96%

Prompt line: Which Percent monomer value belongs to V41C (protein, EGFR binding FN3 domain; EGFR-binding FN3 domain) chain 1: MLPAPKNLVVSEVTEDSARLSWDDPWAFYESFLIQYQESEKCGEAIVLTVPGSERSYDLTGLKPGTEYTVSIYGVHNVYKDTNMRGLPLSAIFTT chain 2: LPAPKNLVVSEVTEDSARLSWDDPWAFYESFLIQYQESEKCGEAIVLTVPGSERSYDLTGLKPGTEYTVSIYGVHNVYKDTNMRGLPLSAIFTT ?
Response line: 98%

Prompt line: Which Percent monomer value belongs to T59C (protein, EGFR binding FN3 domain; EGFR-binding FN3 domain) chain 1: MLPAPKNLVVSEVTEDSARLSWDDPWAFYESFLIQYQESEKVGEAIVLTVPGSERSYDLCGLKPGTEYTVSIYGVHNVYKDTNMRGLPLSAIFTT chain 2: LPAPKNLVVSEVTEDSARLSWDDPWAFYESFLIQYQESEKVGEAIVLTVPGSERSYDLCGLKPGTEYTVSIYGVHNVYKDTNMRGLPLSAIFTT ?
Response line: 100%

Prompt line: Which Percent monomer value belongs to S70C (protein, EGFR binding FN3 domain; EGFR-binding FN3 domain) chain 1: MLPAPKNLVVSEVTEDSARLSWDDPWAFYESFLIQYQESEKVGEAIVLTVPGSERSYDLTGLKPGTEYTVCIYGVHNVYKDTNMRGLPLSAIFTT chain 2: LPAPKNLVVSEVTEDSARLSWDDPWAFYESFLIQYQESEKVGEAIVLTVPGSERSYDLTGLKPGTEYTVCIYGVHNVYKDTNMRGLPLSAIFTT ?
Response line: 100%
